These entries and their values trace back to the RNAGym collection of RNA variant scans (doi:10.1073/pnas.2313332121).

B1: TPR t1 (parent)
chain: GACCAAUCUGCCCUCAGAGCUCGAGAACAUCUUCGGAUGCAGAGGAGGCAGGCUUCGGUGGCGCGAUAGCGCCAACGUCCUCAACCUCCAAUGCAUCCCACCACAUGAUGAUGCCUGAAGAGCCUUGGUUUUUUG

variants of: B1; test: polymerase ribozyme fitness, log enrichment relative to wild type (log ratio); higher = more active; in vitro selection for triplet polymerase activity
value kind: polymerase ribozyme fitness (log ratio)
Answers are plain numbers.

Some solved cases for reference:
C72G U87A	-2.08
G44A G71C C89U	-1.03
C53A C98A C102G U112C	-7.27

Each of the following entries comes with a recorded value; kindly state polymerase ribozyme fitness (log ratio) for each.
1. C11U C73G C102A A103U
2. G48A G63C C72U C124G
3. G17A C88U U133A
4. C114G G122U
5. C11U G17U
6. C31U A46C G47U C98A G120C
7. A16U G42C A43G G45U C73A U129A

Key:
-5.8
-0.71
-3.95
-2.87
-4.34
-7.6
-3.44
